Kindly state viability, T/C for each of the entries shown.
Tested on: 699152-130-R-J1-PDC complex spheroid viability;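 further: spheroids exposed to agents for 7 days before viability reading; percent of DMSO vehicle control viability so 100% = vehicle and 0% = no viable signal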
Assay: Anticancer human tumor 699152-130-R-J1-PDC patient-derived pancreatic carcinoma cell line growth inhibition [POLQ]
Details: second compound 0.0316 µM; first compound 0.316 µM; active compounds read low
Answer in %, number only, no unit symbol.

# viability, T/C of CCCS(=O)(=O)Nc1ccc(F)c(C(=O)c2c[nH]c3ncc(-c4ccc(Cl)cc4)cc23)c1F + Nc1ccc(C#CCN(C(=O)Cc2ncc(C(F)(F)F)cc2C(F)(F)F)c2ccc(F)cc2)nn1 = 118

The value of viability, T/C measured for the molecule CC(C)n1c(=O)n(C)c2cnc3cc(F)c(-c4ccc(OCCCN5CCCCC5)nc4)cc3c21 + Nc1ccc(C#CCN(C(=O)Cc2ncc(C(F)(F)F)cc2C(F)(F)F)c2ccc(F)cc2)nn1 turned out to be 93.5

Entry under test: CCCS(=O)(=O)Nc1ccc(F)c(C(=O)c2c[nH]c3ncc(-c4ccc(Cl)cc4)cc23)c1F + Cc1cccc(N(C)C(=O)C2C(O)CCN2c2nc(C)cc(C(F)(F)F)c2C#N)c1 . Its viability, T/C was 120

Quick note, viability, T/C for CNCc1ccc(-c2[nH]c3cc(F)cc4c3c2CCNC4=O)cc1 + Nc1ccc(C#CCN(C(=O)Cc2ncc(C(F)(F)F)cc2C(F)(F)F)c2ccc(F)cc2)nn1 landed at 95.9

Value of viability, T/C reported for the molecule CNCc1ccc(-c2[nH]c3cc(F)cc4c3c2CCNC4=O)cc1 + COC1C(OC(N)=O)C(O)C(Oc2ccc3c(O)c(NC(=O)c4ccc(O)c(CC=C(C)C)c4)c(=O)oc3c2C)OC1(C)C is 101

# viability, T/C (molecule: CNCc1ccc(-c2[nH]c3cc(F)cc4c3c2CCNC4=O)cc1 + Cc1cccc(N(C)C(=O)C2C(O)CCN2c2nc(C)cc(C(F)(F)F)c2C#N)c1 ) is 101

Looking up CC1COCCN1c1cc(C2(S(C)(=N)=O)CC2)nc(-c2ccnc3[nH]ccc23)n1 (stereo unspecified) + COC1C(OC(N)=O)C(O)C(Oc2ccc3c(O)c(NC(=O)c4ccc(O)c(CC=C(C)C)c4)c(=O)oc3c2C)OC1(C)C , I found its viability, T/C recorded as 95.4

In plain terms, O=C(c1cc(Cc2n[nH]c(=O)c3ccccc23)ccc1F)N1CCN(C(=O)C2CC2)CC1 + Nc1ccc(C#CCN(C(=O)Cc2ncc(C(F)(F)F)cc2C(F)(F)F)c2ccc(F)cc2)nn1 has a documented viability, T/C of 81.6

Per the records, this molecule ( COc1cccc2c1C(=O)c1c(O)c3c(c(O)c1C2=O)CC(O)(C(=O)CO)CC3OC1CC(N)C(O)C(C)O1 (stereo unspecified) + Nc1ccc(C#CCN(C(=O)Cc2ncc(C(F)(F)F)cc2C(F)(F)F)c2ccc(F)cc2)nn1 ) has viability, T/C equal to 51.9

So for CCc1cc2c(N3CCc4c(cc(Cn5ccnc5)cc4-c4cn(C)nc4C(F)(F)F)C3=O)ccnc2c(OC)n1 + Cc1cccc(N(C)C(=O)C2C(O)CCN2c2nc(C)cc(C(F)(F)F)c2C#N)c1 , the logged viability, T/C turned out to be 105

Looking up O=C(Nc1ccc(O)c(NS(=O)(=O)c2ccc(F)cc2)c1)c1ccc(-c2ccccc2)cc1 + Nc1ccc(C#CCN(C(=O)Cc2ncc(C(F)(F)F)cc2C(F)(F)F)c2ccc(F)cc2)nn1 , I found its viability, T/C recorded as 98.2
